Recorded growth for the following compounds
# Tested on: HS 578T breast
# Assay text: NCI-60 one-dose screen, 48 h (100 = growth as untreated, 0 = no growth, -100 = all killed)
# Study conditions: 10 µM unless noted
The panel holds about 83,000 compounds, 20% with a hit somewhere; the sample as a whole holds those more often.
Attribute measured: growth (%)

[[record]]
compound = "CCOC(=O)c1nc2c3ccccc3cnn2c1C(=O)c1ccc(OC)cc1"
unit_spec = "%"
measured_value = 101

[[record]]
compound = "CC(=O)N1N=C(c2ccc(Nc3nc(Nc4ccc(F)cc4)nc(Nc4ccc(F)cc4)n3)cc2)CC1c1ccccc1 (centres undefined)"
unit_spec = "%"
measured_value = 94.8

[[record]]
compound = "N#C/C(=C\\c1ccccc1Cl)c1cc2ccccc2[nH]1"
unit_spec = "%"
measured_value = 92.9

[[record]]
compound = "CCCCCC#CC1OC23CCCCC2C(C#N)(C(=N)O3)C1(C#N)C#N (centres undefined)"
unit_spec = "%"
measured_value = 94.1

[[record]]
compound = "O=S(=O)(Nc1ccc(F)cc1)c1ccc(-c2cnc(C3CC3)o2)cc1"
unit_spec = "%"
measured_value = 14.1

[[record]]
compound = "C/C=C(\\C)C(=O)N[C@H]1CC[C@]2(C)C3CC[C@@]4(C)C(CC[C@@H]4C(C)N(C)C)C3CCC2[C@H]1OC(C)=O (some centres undefined)"
unit_spec = "%"
measured_value = -39.9

[[record]]
compound = "Nc1nc(Nc2cccnc2)sc1C(=O)c1ccccc1F"
unit_spec = "%"
measured_value = 58.1

[[record]]
compound = "COc1ccc2nc3cc(Cl)ccc3c(NCCCNCCC(C)O)c2c1 (centres undefined)"
unit_spec = "%"
measured_value = 0.958

[[record]]
compound = "Cc1cc(N2CCN(CC(=O)Nc3ccc4c(ccn4Cc4ccccc4)c3)CC2)nc(N2CCCCCC2)n1"
unit_spec = "%"
measured_value = 62.8

[[record]]
compound = "C=C(C)[C@@H]1CC[C@]2(C(=O)O)CC[C@]3(C)[C@H](CC[C@@H]4[C@@]5(C)CCC(N)C(C)(C)[C@@H]5CC[C@]43C)[C@@H]12 (some centres undefined)"
unit_spec = "%"
measured_value = 93.1

[[record]]
compound = "CCN(CC)CC#CCOC(=O)[C@]1(C)CCC[C@]2(C)c3ccc(C(C)C)cc3CC[C@@H]12"
unit_spec = "%"
measured_value = 90.2

[[record]]
compound = "CCOC(=O)c1cnn(CC(O)CC)c1NC(=O)NCc1ccccc1C(F)(F)F (centres undefined)"
unit_spec = "%"
measured_value = 109

[[record]]
compound = "COc1ccc2c(c1)CC[C@@H]1[C@@H]2CC[C@]2(C)C3C(=CCC4C(=O)N(c5ccccc5)C(=O)C43)C[C@@H]12 (some centres undefined)"
unit_spec = "%"
measured_value = 97.6

[[record]]
compound = "CN1CCN(c2ccc(Nc3ncc(C(N)=O)c(NCCCNC(=O)C4CCC4)n3)cc2)CC1"
unit_spec = "%"
measured_value = 67.2

[[record]]
compound = "COc1ccc(-c2cc(-c3cc(OC)c(OC)c(OC)c3)c(C#N)c(=O)n2CCCCC(=O)O)cc1"
unit_spec = "%"
measured_value = 87.7

[[record]]
compound = "CCCCCCCC/C=C\\CCCCCCCCOc1ccccc1CC(=O)NCC[N+]1(C)CCOCC1"
unit_spec = "%"
measured_value = 92.9

[[record]]
compound = "COc1cc2ncnc(Nc3ccc(F)c(Cl)c3)c2cc1OCC(=O)N1CCCCC1"
unit_spec = "%"
measured_value = 94.4

[[record]]
compound = "COc1ccc(-c2cc(-c3cccc(Cl)c3)c(C#N)c(=O)[nH]2)c(OC)c1"
unit_spec = "%"
measured_value = 74.4

[[record]]
compound = "Nc1ccc(-c2nc3ccc4[nH]ncc4c3c3c2CCCC3)cc1F"
unit_spec = "%"
measured_value = 17.1


----------
# Tested on: NCI-H226 lung
# Assay text: NCI-60 one-dose screen, 48 h (100 = growth as untreated, 0 = no growth, -100 = all killed)
# Study conditions: 10 µM unless noted
About 83,000 compounds went through this panel and 20% of them were active in at least one assay; those are over-represented in the sample as a whole.
Documented growth across a set of molecules
Attribute measured: growth (%)

[[record]]
chemical_structure = "CC(=O)c1c(C)nc2ccccc2c1/C=C/c1cccc(C)c1"
attribute_measured = "growth"
measured_value = 75.2

[[record]]
chemical_structure = "COc1ccc(-c2cc3cnc4ccccc4c3oc2=O)cc1"
attribute_measured = "growth"
measured_value = 103

[[record]]
chemical_structure = "COc1cc(/C=N/NC(=O)CCN2c3ccccc3Sc3ccccc32)cc(OC)c1OC"
attribute_measured = "growth"
measured_value = 79.3

[[record]]
chemical_structure = "Fc1ccccc1-c1cnn2cc(-c3ccccc3)cnc12"
attribute_measured = "growth"
measured_value = 94.3

[[record]]
chemical_structure = "CC(C)(C)c1cc(NC(=O)Nc2ccc(-c3cn4c(n3)sc3cc(OCCN5CCOCC5)ccc34)cc2)no1"
attribute_measured = "growth"
measured_value = 17.8


----------
# Tested on: HOP-62 NSCLC
# Assay text: NCI-60 one-dose screen, 48 h (100 = growth as untreated, 0 = no growth, -100 = all killed)
# Study conditions: 10 µM
About 83,000 compounds went through this panel and 20% of them were active in at least one assay; those are over-represented in the sample as a whole.
Attribute measured: growth (%)

[[record]]
chemical_structure = "CCN(Cc1ccccc1)c1ccc(/C=C2\\COc3ccccc3C2=O)cc1"
measured_value = 89.6

[[record]]
chemical_structure = "COc1ccc(C(=O)/C=C/c2ccc(OCc3ccc(Cl)cc3)cc2)cc1OC"
measured_value = 104

[[record]]
chemical_structure = "O=C(/C=C/c1cccc(Oc2ccc(Cl)cc2)c1)c1ccccc1"
measured_value = 98.5

[[record]]
chemical_structure = "CC(=O)/C=C/c1ccc(N(C)Cc2ccc(C(C)(C)C)cc2)cc1"
measured_value = 97.6


----------
# Test system: COLO 205 colon
# Assay text: NCI-60 one-dose screen, 48 h
# Study conditions: 10 µM unless noted
The panel holds about 83,000 compounds, 20% with a hit somewhere; the sample as a whole holds those more often. Active and inactive are the calls of the source. Rule for the calls: active = growth percent below 10; inactive = the rest.
Classes used: y = active, n = inactive

[[record]]
compound = "O=C1OCC2=C1C(c1cccc([N+](=O)[O-])c1)c1cc3c(cc1N2CCO)CCC3 (centres undefined)"
class_label = "y"

[[record]]
compound = "C#Cc1cc(C(=O)Nc2ccc(CN3CCN(C)CC3)c(C(F)(F)F)c2)ccc1C"
class_label = "n"

[[record]]
compound = "CCOC(=O)c1cnn(-c2ccc(S(N)(=O)=O)cc2)c1N"
class_label = "n"

[[record]]
compound = "COc1ccc(C/C(C)=C(/c2ccc(OCCN3CCCCCC3)cc2)c2ccc(OC(=O)c3ccccc3)cc2)cc1"
class_label = "n"

[[record]]
compound = "C/C(=C(\\c1ccc(OCCN2CCOCC2)cc1)c1ccc(OC(=O)C2CCCCC2)cc1)c1ccc(Cl)cc1"
class_label = "n"

[[record]]
compound = "Cc1ccc(/C=C/c2c(C(=O)/C=C/c3ccccc3)c(C)nc3ccccc23)cc1"
class_label = "n"

[[record]]
compound = "CCCCCCNC(=O)Oc1ccc(/C(=C(/CC)Cc2ccccc2)c2ccc(OCCCN(C)C)cc2)cc1"
class_label = "n"

[[record]]
compound = "CCCN1C(=O)/C(=c2\\sc3n(c2=O)C2C(NN=3)N(CC)C(=O)N2CC)c2ccccc21 (centres undefined)"
class_label = "n"

[[record]]
compound = "COc1cc(Nc2nc3ccccc3cc2C(=O)Nc2ccc(F)c(F)c2)cc(OC)c1OC"
class_label = "y"


----------
# Tested on: SNB-19 CNS
# Assay text: NCI-60 one-dose screen, 48 h
# Study conditions: 10 µM unless noted
This is part of a sample that, as a whole, favours compounds with a hit. Of some 83,000 tested, about 20% had one in any assay. Calls of active or inactive are those of the source. Rule for the calls: active = growth percent below 10; inactive = the rest.
Classes used: yes = active, no = inactive

[[record]]
compound = "Cc1ccc(/C=C2\\COc3ccc(O)c(O)c3C2=O)cc1"
class_label = "no"

[[record]]
compound = "COc1cc(-c2[nH]ncc2Nc2ccc(Cl)cc2)cc(OC)c1OC"
class_label = "no"

[[record]]
compound = "CCN(CC)CC#CCOC(=O)[C@]1(C)CCC[C@]2(C)c3ccc(C(C)C)cc3CC[C@@H]12"
class_label = "no"

[[record]]
compound = "O=C1C=C(Nc2ccccc2)c2ncccc2C1=O"
class_label = "yes"

[[record]]
compound = "COc1cc(CO)cc2cc3ccccc3nc12"
class_label = "no"

[[record]]
compound = "Cn1cc(-c2nonc2-c2cn(C)c3ccc(Br)cc23)c2ccccc21"
class_label = "no"

[[record]]
compound = "Cc1ccc(/C=C(\\C#N)c2cc3ccccc3[nH]2)cc1"
class_label = "no"

[[record]]
compound = "[2H]C([2H])([2H])Oc1cccc(/C=C/C(=O)/C=C(/C=C/c2cccc(OC([2H])([2H])[2H])c2OC([2H])([2H])[2H])OB(F)F)c1OC([2H])([2H])[2H]"
class_label = "no"

[[record]]
compound = "COc1cc(N=Nc2ccc(O)c3ncccc23)c2ncccc2c1"
class_label = "no"

[[record]]
compound = "COc1ccc2c(c1)c(-c1nc(-c3c[nH]c4c(Cl)nccc34)cs1)cn2C"
class_label = "no"

[[record]]
compound = "CCN(CC)CC(=O)Nc1ccc2ncnc(Nc3ccc(Oc4cccc(F)c4)c(Cl)c3)c2c1"
class_label = "no"

[[record]]
compound = "O=C1C(=C(O)c2ccccc2)C(=O)c2ccccc21"
class_label = "no"

[[record]]
compound = "C#CCn1cnc2cnc(Nc3cccc(NC(=O)CCl)c3)nc21"
class_label = "no"

[[record]]
compound = "Cc1ccccc1SSc1ccccc1C"
class_label = "no"

[[record]]
compound = "COc1cc(Cl)cc(-c2nn(C(=O)NS(=O)(=O)c3ccc(Cl)cc3)cc2-c2ccncc2)c1"
class_label = "no"

[[record]]
compound = "CCOC(=O)c1cnn(-c2ccc(S(N)(=O)=O)cc2)c1N"
class_label = "no"

[[record]]
compound = "CCN(CC)CCCN1C(=O)c2c(c(C)c3c(oc4cc(OC)ccc43)c2C)C1=O"
class_label = "no"

[[record]]
compound = "C=CCN1C=CC(=O)[C@H](O[Si](C)(C)C(C)(C)C)[C@@H]1/C=C/c1ccccc1"
class_label = "yes"

[[record]]
compound = "CCCn1nc(C(=O)N2CCCCC2)c2c1CCC(N1CCC(c3ccncc3)CC1)C2 (stereo not given)"
class_label = "no"

[[record]]
compound = "Cc1cc(N2CCCCC2)nc(NCc2cc(Nc3ccnc4cc(Cl)ccc34)ccc2F)n1"
class_label = "no"

[[record]]
compound = "O=C1/C(=C/c2cn(-c3ccccc3)nc2-c2ccccc2)SC(=S)N1c1ccccc1"
class_label = "no"

[[record]]
compound = "CN(C)C1CCN(C(=O)c2ccc(NC(=O)Nc3ccc(-c4nc(N5CCOCC5)c5cccn5n4)cc3)cc2)CC1"
class_label = "yes"

[[record]]
compound = "CCOC(=O)c1c(-c2ccc(OC)cc2)c(C#N)c2c(C#N)c(N)nn2c1N"
class_label = "no"

[[record]]
compound = "CCCCCCCCCCCCCCCCCCOc1cccc(CC(=O)OCC[N+](CC)(CC)CC)c1"
class_label = "no"

[[record]]
compound = "COc1ccc(-c2nc(Cl)c3c(C)nn(-c4ccc(F)cc4)c3n2)cc1"
class_label = "no"

[[record]]
compound = "COc1ccc2c(c1)c(C(=O)c1nc(-c3cn(C)c4ccccc34)no1)cn2C"
class_label = "no"

[[record]]
compound = "COc1cc2ncnc(Nc3ccc(F)c(Cl)c3)c2cc1OCC(=O)N1CCCCC1"
class_label = "no"

[[record]]
compound = "Cc1ccc(C(=O)Nc2ccc(CN3CCN(C)CC3)c(C(F)(F)F)c2)cc1C#Cc1cnc(N)cc1C#N"
class_label = "yes"

[[record]]
compound = "Clc1ccc2c(c1)N(c1ncnc3ccc(-c4cnc5[nH]ccc5c4)cc13)CC2"
class_label = "no"

[[record]]
compound = "COc1ccc(/C(C)=C(\\c2ccc(OCCN3CCOCC3)cc2)c2ccc(OC(=O)C3CCCCC3)cc2)cc1"
class_label = "no"

[[record]]
compound = "CCCCSc1ccc2nc(-c3ccc(OCCCN=C(N)N)cc3)cn2c1"
class_label = "no"

[[record]]
compound = "NCCOCCOc1ccccc1"
class_label = "no"

[[record]]
compound = "Cc1ccc(NC(=O)c2sc3nc(C)c(C(=O)c4ccccc4)cc3c2N)cc1"
class_label = "no"

[[record]]
compound = "Cc1ccc(NC(=O)N/C(N)=N/c2nc(=O)c3ccccc3s2)cc1"
class_label = "no"

[[record]]
compound = "BrC1=C(Br)C(Br)(Br)C(Br)=C1Br"
class_label = "no"

[[record]]
compound = "Cn1cc(-c2csc(-c3c[nH]c4ccc(F)cc34)n2)c2cnccc21"
class_label = "no"

[[record]]
compound = "C=C[C@]1(C)C=C2CC[C@@H]3C(C)(C)C(=O)CC[C@@]3(C)[C@@H]2CC1"
class_label = "no"

[[record]]
compound = "CON1CCC[C@]2(C)[C@H]3CC[C@@H]4[C@H]5[C@@H](O)C(C)(C)CC[C@]5(CO)CC[C@@]4(C)[C@]3(C)CC[C@H]2C1(C)C"
class_label = "no"

[[record]]
compound = "CN1C(=O)/C(=C/c2ccc(C(=O)Nc3ncc(Cc4ccccc4Cl)s3)cc2)SC1=S"
class_label = "no"

[[record]]
compound = "C=C1CC[C@@H]2[C@](C)(COC(C)=O)[C@H](OC(C)=O)CC[C@@]2(C)[C@@H]1CC(Nc1ccc(S(=O)(=O)Nc2nccs2)cc1)C1=CCOC1=O (stereo not given in full)"
class_label = "no"

